Values compiled from ChEMBL document CHEMBL4390668.

- assay: Selectivity index, ratio of IC50 for human HepG2 cells to IC50 for chloroquine-sensitive Plasmodium falciparum D6 infected in human erythrocytes
- Format: toxicity, cell-based
- assay-context: read-out: Ratio IC50
Listed here are compounds together with their documented selectivity ratio.
Lab note: write the figure by itself, no unit.

Some compounds with recorded selectivity ratio:
[[record]]
structure_as_smiles = "CCN(CC)CCOc1ccc2c(=O)c3ccc(F)cc3[nH]c2c1"
endpoint_result = 127

[[record]]
structure_as_smiles = "CC(C)(C)NCCCOc1ccc2c(=O)c3c(F)cc(F)cc3[nH]c2c1"
endpoint_result = 361

[[record]]
structure_as_smiles = "O=c1c2ccc(OCCNC34CC5CC(CC(C5)C3)C4)cc2[nH]c2ccc(Cl)c(Cl)c12"
endpoint_result = 333


Proceed to the following item.
Can you share its selectivity ratio? I mean this compound: CCN(CC)CCCOc1ccc2c(=O)c3c(Cl)cc(Cl)cc3[nH]c2c1
6840

###

- assay: AUC (0 to last) in ICR mouse plasma at 80 mg/kg, po administered as single dose
- Assay type: ADME, organism-based
- Set-up: dose 80 mg/kg, route oral, time 0 - last
AUC(0-t) for assorted compounds
I only need the number, in ng·h/mL, no unit after it.

The examples below pair each entry with its known result.
[[record]]
compound = "CCCCN(CCCC)CCOc1ccc2c(=O)c3c(Cl)c(Cl)ccc3[nH]c2c1"
property_name = "AUC(0-t)"
unit_tag = "ng·h/mL"
endpoint_result = 3050

[[record]]
compound = "CCCN(CCC)CCCOc1ccc2c(=O)c3c(F)cc(F)cc3[nH]c2c1"
property_name = "AUC(0-t)"
unit_tag = "ng·h/mL"
endpoint_result = 3430

[[record]]
compound = "CCCN(CCC)CCOc1ccc2c(=O)c3c(Cl)c(Cl)ccc3[nH]c2c1"
property_name = "AUC(0-t)"
unit_tag = "ng·h/mL"
endpoint_result = 3840

[[record]]
compound = "CCCN(CCC)CCOc1ccc2c(=O)c3c(F)cc(F)cc3[nH]c2c1"
property_name = "AUC(0-t)"
unit_tag = "ng·h/mL"
endpoint_result = 7560

[[record]]
compound = "CCN(CC)CCOc1ccc2c(=O)c3ccc(Cl)cc3[nH]c2c1"
property_name = "AUC(0-t)"
unit_tag = "ng·h/mL"
endpoint_result = 5310


Given the compound COc1cc(NC(C)CCCN)c2ncccc2c1 (stereo unspecified) , what is its reported AUC(0-t)?
1260

###

In this section we review reported ED50 values for a set of molecules.
- Tested on: Plasmodium yoelii
- assay: Antimalarial activity against blood stage Plasmodium yoelii MR4 MRA-428 infected in CF1 mouse assessed as suppression of parasitemia administered once daily via oral gavage for 4 days starting from 24 hrs post-infection and measured post-last dose by Giemsa-staining based microscopic analysis
- Assay type: functional
Reply numerically in mg/kg.day, unit not repeated.

Some entries whose results are on file:
[[record]]
structure_as_smiles = "CCCCCCOc1ccc2c(=O)c3c(F)cc(F)cc3[nH]c2c1"
endpoint_result = 1.09

[[record]]
structure_as_smiles = "CCN(CC)CCCOc1ccc2c(=O)c3c(Cl)cc(Cl)cc3[nH]c2c1"
endpoint_result = 0.43

[[record]]
structure_as_smiles = "CCCN(CCC)CCOc1ccc2c(=O)c3c(Cl)c(Cl)ccc3[nH]c2c1"
endpoint_result = 1.04


Fill blank: measured ED50 of the molecule CCCCN(CCCC)CCOc1ccc2c(=O)c3c(Cl)c(Cl)ccc3[nH]c2c1 is ____.
1.03

I would be grateful if you could share the reported ED50 for CCN(CC)CCOc1ccc2c(=O)c3c(Cl)c(Cl)ccc3[nH]c2c1 .
1.8

Looking for the measured ED50 of CCCN(CCC)CCOc1ccc2c(=O)c3c(Cl)cc(Cl)cc3[nH]c2c1 , can you help?
0.21

What does the record list as ED50 for O=c1c2ccc(OCCN(CCC(F)(F)F)CCC(F)(F)F)cc2[nH]c2cc(F)cc(F)c12 ?
0.66

May I ask what ED50 has been recorded for CCCN(CCC)CCOc1ccc2c(=O)c3c(F)cc(F)cc3[nH]c2c1 ?
1.12

Give the measured ED50 of CCCN(CCC)CCCOc1ccc2c(=O)c3c(F)cc(F)cc3[nH]c2c1 .
0.6

Param item = CCN(CC)CCOc1ccc2c(=O)c3c(F)cc(F)cc3[nH]c2c1 ; retrieve measured ED50.
1.62

###

Entries and their selectivity ratio
- assay: Selectivity index, ratio of IC50 for human HepG2 cells to IC50 for chloroquine-sensitive Plasmodium falciparum D6 infected in human erythrocytes
- Type: toxicity, cell-based
- assay-context: read-out: Ratio IC50

[[record]]
structure_as_smiles = "CCN(CC)CCOc1ccc2[nH]c3ccc(Cl)cc3c(=O)c2c1"
property_name = "selectivity ratio"
endpoint_result = "> 629"

[[record]]
structure_as_smiles = "CCN(CC)CCOc1ccc2c(=O)c3cc(F)c(OC)cc3[nH]c2c1"
property_name = "selectivity ratio"
endpoint_result = "> 1280"

[[record]]
structure_as_smiles = "CCCN(CCC)CCOc1ccc2c(=O)c3cc(Cl)ccc3[nH]c2c1"
property_name = "selectivity ratio"
endpoint_result = "> 27800"

[[record]]
structure_as_smiles = "O=c1c2ccc(OCCCl)cc2[nH]c2cc(F)cc(F)c12"
property_name = "selectivity ratio"
endpoint_result = "> 40000"

[[record]]
structure_as_smiles = "CCCN(CCC)CCOc1ccc2c(=O)c3c(Cl)cc(OC)cc3[nH]c2c1"
property_name = "selectivity ratio"
endpoint_result = "> 308000"


// selectivity ratio lookup, key: CCN(CC)CCOc1ccc2c(=O)c3ccc(Br)cc3[nH]c2c1
> 1600

Would you mind telling me what selectivity ratio value was observed for CCCN(CCC)CCOc1ccc2[nH]c3cc(Cl)c(Cl)cc3c(=O)c2c1 ?
> 3850

Consider the compound shown here: CCN(CC)CCOc1ccc2c(=O)c3cc(F)c(F)cc3[nH]c2c1 What is its recorded selectivity ratio?
> 1370

Report selectivity ratio for CCCN(CCC)CCOc1ccc2c(=O)c3ccc(C(F)(F)F)cc3[nH]c2c1 please.
> 3850

Fill blank: measured selectivity ratio of the compound O=c1c2ccc(OCCN(CCC(F)(F)F)CCC(F)(F)F)cc2[nH]c2cc(F)cc(F)c12 is ____.
> 100000

###

Reported half-life at 1 µM values for a set of molecules
- assay: Half life in mouse liver microsomes at 1 uM by LC-MS analysis
- Format: ADME, Microsome
Your answer should be a plain number; it is taken to be in min.

These recorded examples may help you get a feel for the data.
[[record]]
structure_as_smiles = "CCCN(CCC)CCOc1ccc2c(=O)c3c(Cl)cc(OC)cc3[nH]c2c1"
endpoint_result = 10

[[record]]
structure_as_smiles = "O=c1c2ccc(OCCCC(F)(F)F)cc2[nH]c2cc(F)cc(F)c12"
endpoint_result = 59

[[record]]
structure_as_smiles = "CCN(CC)CCCOc1ccc2c(=O)c3ccc(Cl)cc3[nH]c2c1"
endpoint_result = 34

[[record]]
structure_as_smiles = "CCCN(CCC)CCOc1ccc2c(=O)c3c(F)cc(F)cc3[nH]c2c1"
endpoint_result = 15

[[record]]
structure_as_smiles = "CCN(CC)CCOc1ccc2[nH]c3cc(Cl)ccc3c(=O)c2c1"
endpoint_result = 34


Requested read-out: half-life at 1 µM. Entry: O=c1c2ccc(OCCCCCl)cc2[nH]c2cc(F)cc(F)c12
6

Form field: reported half-life at 1 µM of CCCN(CCC)CCOc1ccc2c(=O)c3cc(Cl)ccc3[nH]c2c1
16

###

# maps each entry to its half-life at 1 µM
- assay: Half life in human liver microsomes at 1 uM by LC-MS analysis
- Type: ADME, Microsome

[[record]]
structure_as_smiles = "CCCN(CCC)CCOc1ccc2c(=O)c3c(Cl)c(Cl)ccc3[nH]c2c1"
property_name = "half-life at 1 µM"
endpoint_result = "0.183 h"

[[record]]
structure_as_smiles = "CCCN(CCC)CCOc1ccc2c(=O)c3ccc(Cl)cc3[nH]c2c1"
property_name = "half-life at 1 µM"
endpoint_result = "> 1 h"

[[record]]
structure_as_smiles = "CCN(CC)CCCCCOc1ccc2c(=O)c3ccc(Cl)cc3[nH]c2c1"
property_name = "half-life at 1 µM"
endpoint_result = "> 1 h"


In the following, a different molecule is considered.
Need half-life at 1 µM of O=c1c2ccc(OCCCCl)cc2[nH]c2cc(Cl)cc(Cl)c12 , thanks.
> 1 h

###

- assay: Selectivity index, ratio of IC50 for human HepG2 cells to IC50 for chloroquine-sensitive Plasmodium falciparum D6 infected in human erythrocytes
- Format: toxicity, cell-based
- assay-context: read-out: Ratio IC50
Label Condition met when selectivity ratio is at or above 200; otherwise label Condition not met.

Solved entries (count: 10):
[[record]]
compound = "CN(C)CCOc1ccc2c(=O)c3c(Cl)c(Cl)ccc3[nH]c2c1"
assigned_class = "Condition met"

[[record]]
compound = "CCCN(CCC)CCOc1ccc2c(=O)c3c(F)cc(F)cc3[nH]c2c1"
assigned_class = "Condition met"

[[record]]
compound = "CN1CCCC1CCOc1ccc2c(=O)c3c(Cl)c(Cl)ccc3[nH]c2c1 (stereo not drawn)"
assigned_class = "Condition met"

[[record]]
compound = "CCN(CC)CCOc1ccc2c(=O)c3cc(Cl)c(Cl)cc3[nH]c2c1"
assigned_class = "Condition met"

[[record]]
compound = "CCN(CC)CCOc1ccc2[nH]c3cc(Cl)ccc3c(=O)c2c1"
assigned_class = "Condition met"

[[record]]
compound = "O=c1c2ccc(OCCN3CCOCC3)cc2[nH]c2ccc(Cl)c(Cl)c12"
assigned_class = "Condition met"

[[record]]
compound = "CC(C)(C)NCCCOc1ccc2c(=O)c3cc(Cl)c(Cl)cc3[nH]c2c1"
assigned_class = "Condition not met"

[[record]]
compound = "O=c1c2ccc(OCCCCl)cc2[nH]c2cc(Cl)cc(Cl)c12"
assigned_class = "Condition met"

[[record]]
compound = "CCCN(CCC)CCOc1ccc2[nH]c3cc(F)cc(F)c3c(=O)c2c1"
assigned_class = "Condition met"

[[record]]
compound = "CCCN(CCC)CCCOc1ccc2c(=O)c3c(F)cc(F)cc3[nH]c2c1"
assigned_class = "Condition met"


Determine whether measured selectivity ratio meets or exceeds 200 for CCCCNCCCOc1ccc2c(=O)c3c(Cl)cc(Cl)cc3[nH]c2c1
Condition not met

# check: selectivity ratio of O=c1c2ccc(OCCCC(F)(F)F)cc2[nH]c2cc(F)cc(F)c12 is greater than or equal to 200
Condition met

Given O=c1c2ccc(OCCCCCl)cc2[nH]c2cc(F)cc(F)c12 , state whether its selectivity ratio is at least 200.
Condition met

Threshold query (selectivity ratio >= 200) on CCCCNCCCOc1ccc2c(=O)c3c(Cl)c(Cl)ccc3[nH]c2c1
Condition met

Hello, I need to know if CCN(CC)CCOc1ccc2c(=O)c3cc(Cl)ccc3[nH]c2c1 has measured selectivity ratio not below 200. Thanks!
Condition met

Quick check: does CCN(CC)CCOc1ccc2c(=O)c3ccc(Cl)cc3n(CCN(CC)CC)c2c1 have selectivity ratio greater than or equal to 200?
Condition met

Reported selectivity ratio at or above 200? CCN(CC)CCOc1ccc2c(=O)c3ccccc3[nH]c2c1
Condition not met

State whether the measured selectivity ratio reaches 200, counting equality as reaching it, for CN(C)CCOc1ccc2c(=O)c3ccc(Cl)cc3[nH]c2c1
Condition met

Could you verify whether the entry O=c1c2ccc(Cl)cc2[nH]c2cc(OCCN3CCCC3)ccc12 shows selectivity ratio of no less than 200?
Condition not met

Please tell me: is the compound O=c1c2ccc(OCCCCl)cc2[nH]c2ccc(Cl)c(Cl)c12 at or over 200 in terms of selectivity ratio?
Condition met

Exam item: decide whether the reported selectivity ratio for CCCN(CCC)CCOc1ccc2c(=O)c3c(OC)cc(Cl)cc3[nH]c2c1 is at least 200.
Condition not met
